# pEC50 values compiled below
- target system: A138 iCAPS (purified human CB1 with ICL3 native sequence replaced with protein 1 sequence, in lipid bilayer) (human) (UniProt P21554)
- Sequence (P21554 whole entry): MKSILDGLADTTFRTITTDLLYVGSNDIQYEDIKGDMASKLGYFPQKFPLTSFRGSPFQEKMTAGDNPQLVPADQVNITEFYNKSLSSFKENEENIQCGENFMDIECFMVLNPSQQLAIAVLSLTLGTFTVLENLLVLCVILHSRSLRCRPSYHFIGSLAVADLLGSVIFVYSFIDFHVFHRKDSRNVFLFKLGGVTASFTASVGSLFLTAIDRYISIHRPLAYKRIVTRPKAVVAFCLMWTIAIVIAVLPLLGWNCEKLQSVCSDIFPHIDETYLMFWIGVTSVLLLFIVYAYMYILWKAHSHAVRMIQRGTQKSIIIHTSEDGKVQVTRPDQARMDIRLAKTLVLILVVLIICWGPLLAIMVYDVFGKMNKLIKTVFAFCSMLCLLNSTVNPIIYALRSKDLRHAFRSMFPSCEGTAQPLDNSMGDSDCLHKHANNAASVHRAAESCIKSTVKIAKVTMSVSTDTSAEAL
- experiment summary: ELISA, purified IgG on CB1 iCAPS
In simple prose, pEC50 is minus the logarithm base ten of a concentration in moles per litre.

Before answering, review these 2 worked examples.
{"columns": ["binder", "metric", "quantitative result"],
 "data": [
  ["PA2LR3-P1H4 (chimeric) (antibody, V domains shown) VH: EVQLQQSGAELVRPGSSVKISCKASGYVFGNYWMNWVKQRPGQGLEWIGQIYPGDGDTNYNGKFKGKATLTADKSSSTAYMQLSSLTSEDSAVYFCARSHGNYFPYWGQGTLVTVSA VL: QIVLTQSPAIMSASLGERVTMTCTASSSVSSSYLHWYQQKPGSSPKLWIYSTSNLASGVPARFSGSGSGTSYSLTISSMEAEDAATYYCQQWSSYPLTFGAGTKLELKR", "pEC50", 7.68],
  ["PA2LR3-P2E5 (chimeric) (antibody, V domains shown) VH: EVQLQQSGAELVRPGSSVKISCKASGYAFRDYWMNWVKQRPGQGLEWIGQIYPGDGATNYIGKFKGKATLTADKSSSTAYMQLSSLTSEDSAVYFCARSHGNYFPYWGHGTLVTVSA VL: QIVLTQSPAIMSASLGERVTMTCTASSSVSSSYLHWYQQKPGSSPKLWIYSTSNLASGVPARFSGSGSGTSYSLTISSMEAEDAATYYCQQWSSYPLTFGAGTKLELKR", "pEC50", 8.00]
]}

Next binder, pEC50 to be filled in.
q: Dear colleague, please send me the reported pEC50 for PA2LR3-P1G6 (chimeric) (antibody, V domains shown) VH: EVQLQQSGAELVRPGSSVKISCKASGYAFSYYWMNWVKQRPGQGLEWIGQIYPGDGDTNYNGKFKGKATLTVDKSSSTAYMQLSSLTSEDSAVYFCARSHGNYFAYWGQGTLVTVSA VL: DIVLSQSPAIMSASLGERVTMTCTASSSVSSSYLHWYQQKPGSSPKLWIYSTSNLASGVPARFSGSGSGTSYSLTISRMEAEDAATYYCQQWSSYPLTFGAGTKLELKR when you can.
a: 7.09
